Biological target: hMC4-R (HEK-293 cells) (Homo sapiens)
Construct: expressed in transfected cells; host or cells: HEK-293
Assay: cAMP assay for agonist/antagonist status and functional antagonism, MC4-R
Format: cell-based
Settings: functional antagonism, Schild's analysis vs NDP-α-MSH; read-out: pA2 value as to MC4-R (converted)
Positions of bridges follow the written chain, without caps; N, C: chain ends. Non-standard residues stand in square brackets, D forms with d. Residues, ends and D or L forms follow the SMILES beside them. 2Nal = N[C@@H](Cc1ccc2ccccc2c1)C(=O)O; d2Nal = N[C@H](Cc1ccc2ccccc2c1)C(=O)O; Nle = CCCC[C@H](N)C(=O)O
# Lookup of reported Kb keyed by entry
Express it in nM; write the number only.

Guide cases for Kb, answers given:
>  <molecule>
CCNC(=O)[C@@H]1CCCCNC(=O)C[C@H](NC(C)=O)C(=O)N[C@@H](Cc2c[nH]c3ccccc23)C(=O)N[C@H](Cc2ccc3ccccc3c2)C(=O)N[C@@H](CCCNC(=N)N)C(=O)N[C@@H](Cc2ccc3ccccc3c2)C(=O)N1 [Example 17] (Ac-DW[d2Nal]R[2Nal]K-NHEt; lactam 1-6)

>  <targetUnderTest>
hMC4-R (HEK-293 cells) (Homo sapiens)

>  <Kb [nM]>
1.74

$$$$
>  <molecule>
CCCC[C@H](NC(C)=O)C(=O)N[C@H]1CC(=O)NCCCC[C@@H](C(=O)O)NC(=O)[C@H](Cc2ccc3ccccc3c2)NC(=O)[C@H](CCCNC(=N)N)NC(=O)[C@@H](Cc2ccc3ccccc3c2)NC(=O)[C@H](Cc2c[nH]cn2)NC1=O [Example 12] (Ac-[Nle]DH[d2Nal]R[2Nal]K-OH; lactam 2-7)

>  <targetUnderTest>
hMC4-R (HEK-293 cells) (Homo sapiens)

>  <Kb [nM]>
7.59

$$$$
>  <molecule>
CC(=O)N[C@H]1CC(=O)NCCCC[C@@H](C(=O)O)NC(=O)[C@H](Cc2ccc3ccccc3c2)NC(=O)[C@H](CCCNC(=N)N)NC(=O)[C@@H](Cc2ccc3ccccc3c2)NC(=O)[C@H](Cc2c[nH]cn2)NC1=O [Example 15] (Ac-DH[d2Nal]R[2Nal]K-OH; lactam 1-6)

>  <targetUnderTest>
hMC4-R (HEK-293 cells) (Homo sapiens)

>  <Kb [nM]>
10

$$$$

# input for lookup
Identify Kb associated with the molecule CC(=O)N[C@H]1CC(=O)NCCCC[C@@H](C(=O)O)NC(=O)[C@H](Cc2c[nH]c3ccccc23)NC(=O)[C@H](CCCNC(=N)N)NC(=O)[C@@H](Cc2ccc3ccccc3c2)NC(=O)[C@H](Cc2c[nH]cn2)NC1=O [Example 14]
186

====

Molecular target: hMC3-R (HEK-293 cells) (Homo sapiens)
Construct: expressed in transfected cells; host or cells: HEK-293
Sequence (P41968 whole entry): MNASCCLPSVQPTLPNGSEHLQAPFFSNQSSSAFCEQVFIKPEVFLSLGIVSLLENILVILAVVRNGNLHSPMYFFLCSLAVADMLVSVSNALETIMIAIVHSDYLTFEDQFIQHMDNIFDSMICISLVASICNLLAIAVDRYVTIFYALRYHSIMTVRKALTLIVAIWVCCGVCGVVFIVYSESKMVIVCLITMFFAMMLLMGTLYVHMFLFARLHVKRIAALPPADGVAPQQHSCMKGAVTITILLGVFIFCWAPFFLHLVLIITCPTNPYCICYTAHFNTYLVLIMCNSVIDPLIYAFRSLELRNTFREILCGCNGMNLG
Experiment: cAMP assay for agonist/antagonist status and functional antagonism, MC3-R
Type: cell-based
Conditions: cAMP assay
Positions of bridges follow the written chain, without caps; N, C: chain ends. Non-standard residues stand in square brackets, D forms with d. Residues, ends and D or L forms follow the SMILES beside them. 2Nal = N[C@@H](Cc1ccc2ccccc2c1)C(=O)O; d2Nal = N[C@H](Cc1ccc2ccccc2c1)C(=O)O
measure: agonist/antagonist status as to MC3-R

>  <compound>
CC(=O)N[C@H]1CC(=O)NCCCC[C@@H](C(=O)N(C)C)NC(=O)[C@H](Cc2ccc3ccccc3c2)NC(=O)[C@H](CCCNC(=N)N)NC(=O)[C@@H](Cc2ccc3ccccc3c2)NC(=O)[C@H](Cc2c[nH]c3ccccc23)NC1=O [Example 18] (Ac-DW[d2Nal]R[2Nal]K-NMe2; lactam 1-6)

>  <obsValue>
antagonist

$$$$
>  <compound>
CC(=O)N[C@H]1CC(=O)NCCCC[C@@H](C(=O)O)NC(=O)[C@H](Cc2ccc3ccccc3c2)NC(=O)[C@H](CCCNC(=N)N)NC(=O)[C@@H](Cc2ccc3ccccc3c2)NC(=O)[C@H](Cc2c[nH]cn2)NC1=O [Example 15] (Ac-DH[d2Nal]R[2Nal]K-OH; lactam 1-6)

>  <obsValue>
antagonist

$$$$
>  <compound>
CC(=O)N[C@H]1CC(=O)NCCCC[C@@H](C(=O)O)NC(=O)[C@H](Cc2ccc3ccccc3c2)NC(=O)[C@H](CCCNC(=N)N)NC(=O)[C@@H](Cc2ccc3ccccc3c2)NC(=O)[C@H](Cc2c[nH]c3ccccc23)NC1=O [Example 16] (Ac-DW[d2Nal]R[2Nal]K-OH; lactam 1-6)

>  <obsValue>
antagonist

$$$$

====

Molecular target: MC1-R (B-16 mouse melanoma cells) (Mus musculus)
Sequence (Q01727 whole entry): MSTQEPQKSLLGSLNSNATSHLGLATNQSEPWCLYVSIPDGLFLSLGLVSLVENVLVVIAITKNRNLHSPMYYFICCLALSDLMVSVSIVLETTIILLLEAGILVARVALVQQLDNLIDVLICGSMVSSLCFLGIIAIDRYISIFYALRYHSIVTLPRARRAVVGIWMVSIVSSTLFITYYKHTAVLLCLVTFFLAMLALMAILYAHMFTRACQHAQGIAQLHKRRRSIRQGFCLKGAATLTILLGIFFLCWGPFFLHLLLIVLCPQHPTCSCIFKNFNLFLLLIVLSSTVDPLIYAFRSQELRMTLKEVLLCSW
Experiment: cAMP assay for agonist/antagonist status, MC1-R
Assay type: cell-based
Conditions: read-out: EC50 as to MC1-R
Positions of bridges follow the written chain, without caps; N, C: chain ends. Non-standard residues stand in square brackets, D forms with d. Residues, ends and D or L forms follow the SMILES beside them. 2Nal = N[C@@H](Cc1ccc2ccccc2c1)C(=O)O; d2Nal = N[C@H](Cc1ccc2ccccc2c1)C(=O)O; Nle = CCCC[C@H](N)C(=O)O
# Lookup of reported EC50 keyed by entry

>  <compound>
CCCC[C@H](NC(C)=O)C(=O)N[C@H]1CC(=O)NCCCC[C@@H](C(=O)O)NC(=O)[C@H](Cc2ccc3ccccc3c2)NC(=O)[C@H](CCCNC(=N)N)NC(=O)[C@@H](Cc2ccc3ccccc3c2)NC(=O)[C@H](Cc2c[nH]cn2)NC1=O [Example 12] (Ac-[Nle]DH[d2Nal]R[2Nal]K-OH; lactam 2-7)

>  <measure>
EC50

>  <obsValue>
5 nM

$$$$

Identify EC50 associated with the compound CCCC[C@H](NC(C)=O)C(=O)N[C@H]1CC(=O)NCCCC[C@@H](C(=O)O)NC(=O)[C@H](Cc2c[nH]c3ccccc23)NC(=O)[C@H](CCCNC(=N)N)NC(=O)[C@@H](Cc2ccc3ccccc3c2)NC(=O)[C@H](Cc2c[nH]cn2)NC1=O
57 nM

Identify EC50 associated with the compound CC(=O)N[C@H]1CC(=O)NCCCC[C@@H](C(=O)O)NC(=O)[C@H](Cc2ccc3ccccc3c2)NC(=O)[C@H](CCCNC(=N)N)NC(=O)[C@@H](Cc2ccc3ccccc3c2)NC(=O)[C@H](Cc2c[nH]c3ccccc23)NC1=O [Example 16] (Ac-DW[d2Nal]R[2Nal]K-OH; lactam 1-6)
> 1000 nM

Identify EC50 associated with the compound CC(=O)N[C@H]1CC(=O)NCCCC[C@@H](C(=O)O)NC(=O)[C@H](Cc2c[nH]c3ccccc23)NC(=O)[C@H](CCCNC(=N)N)NC(=O)[C@@H](Cc2ccc3ccccc3c2)NC(=O)[C@H](Cc2c[nH]cn2)NC1=O
4420 nM

Identify EC50 associated with the compound CC(=O)N[C@H]1CC(=O)NCCCC[C@@H](C(=O)O)NC(=O)[C@H](Cc2ccc3ccccc3c2)NC(=O)[C@H](CCCNC(=N)N)NC(=O)[C@@H](Cc2ccc3ccccc3c2)NC(=O)[C@H](Cc2c[nH]cn2)NC1=O [Example 15] (Ac-DH[d2Nal]R[2Nal]K-OH; lactam 1-6)
2150 nM

Identify EC50 associated with the compound CCNC(=O)[C@@H]1CCCCNC(=O)C[C@H](NC(C)=O)C(=O)N[C@@H](Cc2c[nH]c3ccccc23)C(=O)N[C@H](Cc2ccc3ccccc3c2)C(=O)N[C@@H](CCCNC(=N)N)C(=O)N[C@@H](Cc2ccc3ccccc3c2)C(=O)N1 [Example 17] (Ac-DW[d2Nal]R[2Nal]K-NHEt; lactam 1-6)
> 1000 nM

====

These compounds were tested on hMC4-R (Homo sapiens); log10(Ki) is the recorded read-out.
Sequence (P32245 whole entry): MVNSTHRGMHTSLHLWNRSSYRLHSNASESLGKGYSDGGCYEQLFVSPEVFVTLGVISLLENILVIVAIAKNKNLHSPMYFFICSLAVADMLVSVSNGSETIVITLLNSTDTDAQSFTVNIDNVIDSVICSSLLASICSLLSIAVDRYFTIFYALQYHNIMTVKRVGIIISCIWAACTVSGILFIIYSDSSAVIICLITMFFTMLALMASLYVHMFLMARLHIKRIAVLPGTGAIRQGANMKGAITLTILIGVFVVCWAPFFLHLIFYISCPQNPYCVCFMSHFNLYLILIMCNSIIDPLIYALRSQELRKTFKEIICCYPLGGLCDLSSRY
Positions of bridges follow the written chain, without caps; N, C: chain ends. Non-standard residues stand in square brackets, D forms with d. Residues, ends and D or L forms follow the SMILES beside them. 2Nal = N[C@@H](Cc1ccc2ccccc2c1)C(=O)O; d2Nal = N[C@H](Cc1ccc2ccccc2c1)C(=O)O; Nle = CCCC[C@H](N)C(=O)O
Kindly note that the scale is log10 and the underlying Ki is in nM.

>  <compound>
CNC(=O)[C@@H]1CCCCNC(=O)C[C@H](NC(C)=O)C(=O)N[C@@H](Cc2c[nH]c3ccccc23)C(=O)N[C@H](Cc2ccc3ccccc3c2)C(=O)N[C@@H](CCCNC(=N)N)C(=O)N[C@@H](Cc2ccc3ccccc3c2)C(=O)N1 [Example 19] (Ac-DW[d2Nal]R[2Nal]K-NHMe; lactam 1-6)

>  <targetUnderTest>
hMC4-R (Homo sapiens)

>  <measure>
log10(Ki)

>  <obsValue>
-1.22

$$$$
>  <compound>
CC(=O)N[C@H]1CC(=O)NCCCC[C@@H](C(=O)O)NC(=O)[C@H](Cc2ccc3ccccc3c2)NC(=O)[C@H](CCCNC(=N)N)NC(=O)[C@@H](Cc2ccc3ccccc3c2)NC(=O)[C@H](Cc2c[nH]c3ccccc23)NC1=O [Example 16] (Ac-DW[d2Nal]R[2Nal]K-OH; lactam 1-6)

>  <targetUnderTest>
hMC4-R (Homo sapiens)

>  <measure>
log10(Ki)

>  <obsValue>
-1.00

$$$$
>  <compound>
CC(=O)N[C@H]1CC(=O)NCCCC[C@@H](C(=O)N(C)C)NC(=O)[C@H](Cc2ccc3ccccc3c2)NC(=O)[C@H](CCCNC(=N)N)NC(=O)[C@@H](Cc2ccc3ccccc3c2)NC(=O)[C@H](Cc2c[nH]c3ccccc23)NC1=O [Example 18] (Ac-DW[d2Nal]R[2Nal]K-NMe2; lactam 1-6)

>  <targetUnderTest>
hMC4-R (Homo sapiens)

>  <measure>
log10(Ki)

>  <obsValue>
-1.52

$$$$
>  <compound>
CC(=O)N[C@H]1CC(=O)NCCCC[C@@H](C(=O)O)NC(=O)[C@H](Cc2ccc3ccccc3c2)NC(=O)[C@H](CCCNC(=N)N)NC(=O)[C@@H](Cc2ccc3ccccc3c2)NC(=O)[C@H](Cc2c[nH]cn2)NC1=O [Example 15] (Ac-DH[d2Nal]R[2Nal]K-OH; lactam 1-6)

>  <targetUnderTest>
hMC4-R (Homo sapiens)

>  <measure>
log10(Ki)

>  <obsValue>
0.30

$$$$
>  <compound>
CCNC(=O)[C@@H]1CCCCNC(=O)C[C@H](NC(C)=O)C(=O)N[C@@H](Cc2c[nH]c3ccccc23)C(=O)N[C@H](Cc2ccc3ccccc3c2)C(=O)N[C@@H](CCCNC(=N)N)C(=O)N[C@@H](Cc2ccc3ccccc3c2)C(=O)N1 [Example 17] (Ac-DW[d2Nal]R[2Nal]K-NHEt; lactam 1-6)

>  <targetUnderTest>
hMC4-R (Homo sapiens)

>  <measure>
log10(Ki)

>  <obsValue>
-1.52

$$$$

# input for lookup
Under hMC4-R (Homo sapiens): report log10(Ki) of CCCC[C@H](NC(C)=O)C(=O)N[C@H]1CC(=O)NCCCC[C@@H](C(=O)O)NC(=O)[C@H](Cc2ccc3ccccc3c2)NC(=O)[C@H](CCCNC(=N)N)NC(=O)[C@@H](Cc2ccc3ccccc3c2)NC(=O)[C@H](Cc2c[nH]cn2)NC1=O [Example 12] (Ac-[Nle]DH[d2Nal]R[2Nal]K-OH; lactam 2-7) .
-1.70

All figures here come from patent US7342089B2.
